- Tested on: SNB-19
- assay_details: NCI tumour cell line growth inhibition, 48 h
Calls of active or inactive are those of the source. No stated cut-off is given here; in the data, active = GI50 up to about 1.1 µM and inactive = higher.
readout_label: GI50

query: Give GI50; test system SNB-19; molecule O=c1c2c3c(sc2nc(CN2CCNCC2)n1-c1ccccc1)CCCC3
result: > 100 µM (inactive)

query: Retrieve GI50 on SNB-19; query COc1cc(/C=C2\C(=O)N(c3ccc(NC(C)=O)cc3)C(c3ccccc3)S2(=O)=O)cc(OC)c1OC (stereo unspecified)
result: > 100 µM (inactive)

query: // output GI50; input Cc1cc(-c2nc3ccc(F)cc3s2)ccc1N ; system SNB-19
result: > 100 µM (inactive)

query: Provide the reported GI50 (system: SNB-19) for CCOC(=O)COc1cccc2occc(=O)c12
result: > 100 µM (inactive)

query: State GI50 (SNB-19) of Cc1ccc(C(=O)C#Cc2cnc(O)nc2O)cc1 .
result: 18.2 µM (inactive)

query: Under SNB-19: report GI50 of CC(C)OP(=O)(OC(C)C)C(C)(C)O .
result: > 100 µM (inactive)

----------
- System: SK-OV-3
- assay_details: NCI tumour cell line growth inhibition, 48 h
Active and inactive are the calls of the source. No stated cut-off is given here; in the data, active = GI50 up to about 1.1 µM and inactive = higher.
A correct response names exactly one class from 1 for active, 0 for inactive

query: Fill in: this test's call for O=C1C[C@@H]2[C@@H](C=CC23CC3)N1O is ___
result: 0

query: Which outcome was entered for the compound CCCCCCCCCCCCCCCC(=O)NC1CCc2cc(O)c(O)c(O)c2-c2ccc(SC)c(=O)cc21 (stereo not given) in this test?
result: 0

query: What call does the record list for OC12CCC3(OC4CCCCO4)c4ccccc4C3C1c1ccccc12 (stereo not given) ?
result: 0

query: Which result was noted for this compound in the test: C=C1CC(C)(COc2ccc3c(C)cc(=O)oc3c2)OC1=O (stereo not given)
result: 0

query: Field: outcome | Entry: O=c1c(-c2ccccc2)c(SCCCN2CCCCC2)n(-c2ccccc2)c(=S)n1-c1ccccc1
result: 0

query: Called result for C[C@@H]1C[C@H]2[C@@H]3CCC4=CC(=O)C=C[C@]4(C)[C@@]3(Cl)[C@@H](Cl)C[C@]2(C)[C@@]1(O)C(=O)COP(=O)(O)O
result: 0

query: # fetch the recorded call for O=C(N/N=C(COc1ccccc1)\N=C\c1cccnc1)c1ccncc1 here
result: 0

query: Would you mind telling me which call this test gave COc1cc2cc(C(=O)N3CC(CCl)c4ccc(N(C)C)cc43)[nH]c2c(OC)c1OC (stereo not given) ?
result: 1

query: Please indicate how the test categorized Cc1nc2sccn2c1C(=O)NN .
result: 0

query: Hi, sorry to bother you, what did the test record for Cn1cnc(CCc2ccccc2)n1 ?
result: 0

----------
- System: PC-3
- assay_details: NCI tumour cell line growth inhibition, 48 h
Calls of active or inactive are those of the source. Rule as the data show it: active = GI50 up to about 1.1 µM and inactive = higher.
readout_label: GI50

query: Give the observed GI50 of COC1(c2ccccc2)N=C(S)NN=C1c1ccccc1 (configuration not stated) for PC-3.
result: 31.4 µM (inactive)

query: GET GI50 | system: PC-3 | item: O=C1CCCc2c1c1c(n2Cc2ccccc2)-c2ccccc2C1=O
result: 27.4 µM (inactive)

query: Recall the reported GI50 of Cn1c2ccccc2c2c3c(c4c5ccccc5n(C)c4c21)C(=O)NC3=O when tested on PC-3.
result: > 31.4 µM (inactive)

query: // output GI50; input CC(=O)Nc1ccc2cc3[nH]c4cc(NC(C)=O)ccc4c3nc2c1 ; system PC-3
result: > 100 µM (inactive)

query: Under PC-3: report GI50 of C[N+]1(C)CC[N+](C)(C)[BH-]1C(O)O .
result: > 100 µM (inactive)

query: Provide the reported GI50 (system: PC-3) for c1ccc2c(c1)nc1n2sc2nc3ccccc3n21
result: > 100 µM (inactive)

query: Return reported GI50 for target or system PC-3, item CC(C)OP(=O)(OC(C)C)C(C)(C)O .
result: > 100 µM (inactive)

query: Report value only: GI50, PC-3, Cn1c2ccccc2n2c3ncccc3/c(=N/CCCC(=O)O)c(C#N)c12
result: > 100 µM (inactive)

query: Lab note: PC-3 assay, enter GI50 for CCn1c(-c2ccc(OC)cc2)nc2c1C(=O)c1ccccc1C2=O here
result: > 100 µM (inactive)

query: GET GI50 where system = PC-3 and item = COC12C(COC(=O)NCCO)C3=C(C(=O)C(C)=C(N)C3=O)N1CC1NC12 (configuration not stated)
result: 35.2 µM (inactive)

query: Recall the reported GI50 of C=C(Br)C(Br)(CCl)CCC(Cl)C(C)C.C=C(Cl)C(Br)(CCl)CCC(Cl)C(C)C (configuration not stated) on PC-3 and write it down.
result: 2.91 µM (inactive)

query: Param request: GI50 | system PC-3 | item Cc1nc2ccc(C(F)(F)F)cc2nc1NCc1ccc(Cl)c(Cl)c1
result: 12.9 µM (inactive)

----------
- Tested on: KM-20L2
- assay_details: NCI tumour cell line growth inhibition, 48 h
The source made the active and inactive calls. Rule as the data show it: active = GI50 up to about 1.1 µM and inactive = higher.
Write down the outcome that applies. Available outcomes: active, inactive

query: Dear all, I need the recorded test outcome for O=C(CC1S/C(=N\c2ccccc2Cl)NC1=O)Nc1ccc(Cl)cc1 (configuration not stated) , thank you.
result: inactive

query: So what was the verdict on N#Cc1nc(Nc2ccc(Cl)cc2)sc1N in this test?
result: inactive

query: Which outcome did this test record for the molecule Nc1nc(SCCC/C=C/B(O)O)nc2c1ncn2C1OC(COP(=O)(O)O)C(O)C1O (configuration not stated) ?
result: inactive

query: Fill in: this test's call for COc1ccc(NC(=O)CC(=O)N/N=C(\C)c2cc3ccccc3oc2=O)cc1 is ___
result: inactive

query: What is the recorded call for this molecule in the test? CC1(C)COC2C(N(Cc3ccccc3)Cc3ccccc3)C(=O)N21 (configuration not stated)
result: inactive

query: GET /call?item= COc1ccc(C2COc3cc(O)c(O)cc3C2)cc1 (configuration not stated) returns the recorded outcome of this test.
result: inactive

query: Could you please tell me the result logged for CCOC(=O)COc1cccc2occc(=O)c12 in this assay?
result: inactive

query: Recorded test outcome, item C=CCc1cc(OC)c(O)c(C(=O)/C=C/c2ccc(OC)c(OC)c2)c1
result: inactive

query: What did the test return for CC1COS(=O)N1c1ccccc1 (configuration not stated) ?
result: inactive

query: Fill in: this test's call for O=c1[nH]cc(COCC(O)CO)c(=O)[nH]1 (configuration not stated) is ___
result: inactive

query: Please let me know the test result on file for CCOC(=O)/C=C(/CN1C(=O)c2ccccc2C1=O)c1ccccc1 .
result: inactive

query: Assay result, entry COc1cc(CNc2ccc(C)cc2)cc(OC)c1OC — outcome?
result: active

query: I'd appreciate the recorded outcome for CCCNC(=O)C(C)(Cl)C(=O)c1ccccc1O (configuration not stated) from this test.
result: inactive

query: Outcome logged for CN(C)c1n/c(=N/c2ccc(/N=c3\nc(N(C)C)ss3)cc2)ss1 in this assay:
result: inactive

query: For Cc1cc(N(CCC#N)S(=O)(=O)c2ccccc2)ccc1/C=N\c1cccc(C(=O)O)c1 , which call appears in the assay record?
result: inactive

query: Lab log entry: COc1ccc(C(=O)C(CC2C(=O)NC(=O)NC2=O)c2ccc(OC)cc2)cc1 (configuration not stated) — outcome as called in the assay?
result: inactive

query: Recorded test call requested for CN(CCN(C)C(=O)CCn1cc(F)c(=O)[nH]c1=O)C(=O)CCn1cc(F)c(=O)[nH]c1=O
result: inactive

query: So what was the verdict on C=CCC1C(=O)CC2(C)CC(=O)C(CC=C)C12C (configuration not stated) in this test?
result: inactive

query: Answer briefly: the call reported for NCCCNCCCCN(CCCN)/[N+]([O-])=N\O in this assay.
result: inactive

query: What outcome does the record of this test show for Cc1cc(C)nc(NS(=O)(=O)c2ccc(NC(=O)c3ccc(Cl)c4c(Nc5ccc(S(=O)(=O)Nc6cc(C)on6)cc5)c5ccccc5nc34)cc2)n1 ?
result: inactive

query: Which outcome was assigned to COC1OC(=O)[C@H]2O[N+]([O-])=C(C)[C@@H]12 (some centres not stated) in this test?
result: inactive

query: Please let me know the test result on file for CC(C)O/C=C1\C(=O)C2(SCCS2)[C@H]2CCCC[C@@H]12 .
result: inactive

----------
- Test system: DU-145
- assay_details: NCI tumour cell line growth inhibition, 48 h
Calls of active or inactive are those of the source. Cut-off read from the data, not from the text of the source: active = GI50 up to about 1.1 µM and inactive = higher.
For each record, write down the corresponding GI50.

query: Output GI50 of C1=CC2(C=CC13O[C@H](C1CCCCC1)[C@@H](C1CCCCC1)O3)O[C@H](C1CCCCC1)[C@@H](C1CCCCC1)O2
result: > 50 µM (inactive)

query: Provide measured GI50 value, entry: NC(=O)c1ccc(C(=O)Nc2ccc([As](=O)(O)O)cc2)cc1
result: > 100 µM (inactive)

query: Give the reported value of GI50 for this record: C[C@]12CCC(=O)[C@@H](CCC3=CC(=O)C=CC3=O)[C@@H]1CCC2=O
result: 17.9 µM (inactive)

query: Output measured GI50 for this item: COc1cc(S(=O)(=O)Nc2nc(-c3ccc(N4C(=O)/C(=C\c5cccs5)N=C4c4ccccc4)cc3)cs2)ccc1Cl
result: > 100 µM (inactive)
